target: UniProt:P43490; assay: Assay 1: Biochemical Inhibition Assay (NAMPT enzymatic reaction, NMN quantified by mass spectrometry); conditions: Biochemical (IC50)
Here, each record is paired with measured IC50 data.
Endpoint name: IC50 (nM)

>>> endpoint_result("O=C(NCc1ccc(S(=O)(=O)N2C3COCC2CC(O)C3)cc1)c1ccc2nccn2c1 (racemic)")
46.4
>>> endpoint_result("CN1C2COCC1CN(S(=O)(=O)c1ccc(CNC(=O)c3ccc4nccn4c3)cc1)C2 (racemic)")
122

----------
molecular target: NAMPT (Homo sapiens (Human)); test: Assay 1: Biochemical Inhibition Assay (NAMPT enzymatic reaction, NMN quantified by mass spectrometry); conditions: read-out: Biochemical (IC50)
Sequence (P43490 whole entry): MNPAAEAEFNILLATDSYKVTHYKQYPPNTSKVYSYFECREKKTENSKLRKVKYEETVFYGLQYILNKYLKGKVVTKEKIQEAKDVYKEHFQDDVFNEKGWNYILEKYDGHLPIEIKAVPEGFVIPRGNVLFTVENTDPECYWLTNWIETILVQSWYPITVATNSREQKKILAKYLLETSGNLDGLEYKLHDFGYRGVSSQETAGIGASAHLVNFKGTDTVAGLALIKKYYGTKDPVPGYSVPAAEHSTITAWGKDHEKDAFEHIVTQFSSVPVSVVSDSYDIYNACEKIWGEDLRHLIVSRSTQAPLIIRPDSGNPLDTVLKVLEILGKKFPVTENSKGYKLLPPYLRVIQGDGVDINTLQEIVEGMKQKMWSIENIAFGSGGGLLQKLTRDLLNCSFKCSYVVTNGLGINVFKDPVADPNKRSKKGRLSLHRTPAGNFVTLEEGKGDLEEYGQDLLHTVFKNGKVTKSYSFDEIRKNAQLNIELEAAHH
Here, each record is paired with measured IC50 data.
Endpoint name: IC50 (nM)

>>> endpoint_result("CC(C)(C)OC(=O)N1CC[C@@H]2CN(S(=O)(=O)c3ccc(CNC(=O)c4ccc5nccn5c4)cc3)C[C@@H]21 (racemic)")
43.7
>>> endpoint_result("O=C(NCc1ccc(S(=O)(=O)C2CCCOC2)cc1)c1cc2ccncc2o1 (stereo not shown) [Example 275]")
30.4
>>> endpoint_result("O=C(NCc1ccc(S(=O)(=O)N2CC3CCC(C2)O3)cc1)c1cc2ccncc2s1")
12.6
>>> endpoint_result("O=C(NCc1ccc(S(=O)(=O)N2CCC3(CCNCC3)C2)cc1)c1ccc2nccn2c1")
53.7
>>> endpoint_result("O=C(NCc1ccc(S(=O)(=O)N2CCCCC2)cc1)c1ccc2ncnn2c1")
17.2
>>> endpoint_result("O=C(NCc1ccc(S(=O)(=O)C2CCN(CC(F)(F)F)CC2)cc1)c1cc2ccncc2o1")
13.5
>>> endpoint_result("CN1CCC2(C1)CN(S(=O)(=O)c1ccc(CNC(=O)c3cc4ccncc4o3)cc1)C2")
2.83
>>> endpoint_result("CC(C)(C)OC(=O)N1CCC2(CCN(S(=O)(=O)c3ccc(CNC(=O)c4ccc5nccn5c4)cc3)C2)C1 (stereo not shown)")
14.4
>>> endpoint_result("O=C(NCc1ccc([S+]([O-])C2CCN(CC(F)(F)F)CC2)cc1)c1ccc2nccn2c1 (stereo not shown)")
2.93
>>> endpoint_result("CN1CC2CN(S(=O)(=O)c3ccc(CNC(=O)c4ccc5nccn5c4)cc3)CC(C1)O2 (racemic)")
113
>>> endpoint_result("CN1C[C@H]2C[C@@H](C1)N(S(=O)(=O)c1ccc(CNC(=O)c3ccc4nccn4c3)cc1)C2 (racemic)")
95.8
>>> endpoint_result("O=C(NCc1ccc(S(=O)(=O)[C@H]2CCOC2)cc1)c1cnc2[nH]ncc2c1")
315
>>> endpoint_result("O=C(NCc1ccc(S(=O)(=O)N2CCCC3(CCCN3)CC2)cc1)c1ccc2nccn2c1 (stereo not shown)")
26.7
>>> endpoint_result("CC(C)N1CCC(S(=O)(=O)c2ccc(CNC(=O)c3cc4cnccc4[nH]3)cc2)CC1")
88.5
>>> endpoint_result("CN1CCC2(C1)CN(S(=O)(=O)c1ccc(CNC(=O)c3ccc4nccn4c3)cc1)C2")
30.4
>>> endpoint_result("CCCN1CCC([S+]([O-])c2ccc(CNC(=O)c3cnc4[nH]ncc4c3)cc2)CC1 (stereo not shown)")
594

----------
molecular target: NAMPT (Homo sapiens (Human)); assay: Assay 1: Biochemical Inhibition Assay (NAMPT enzymatic reaction, NMN quantified by mass spectrometry); details: read-out: Biochemical (IC50)
Classes (IC50): low group (below 30 nM), middle group (30 nM to below 100 nM), high group (100 nM or more)

>>> group_label("C[C@@H]1CN(S(=O)(=O)c2ccc(CNC(=O)c3cc4ccncc4o3)cc2)C[C@H](C)N1 [Example 61]")
"low group"
>>> group_label("O=C(NCc1ccc([S+]([O-])C2CCN(CC(F)(F)F)CC2)cc1)c1cnc2[nH]ncc2c1 (stereo not shown) [Example 367]")
"middle group"
>>> group_label("CN1CCC([S+]([O-])c2ccc(CNC(=O)c3cc4ccncc4o3)cc2)CC1 (stereo not shown) [Example 379]")
"high group"
>>> group_label("O=C(NCc1ccc(S(=O)(=O)N2CC3CC3C2)cc1)c1ccc2nccn2c1 (stereo not shown) [Example 160]")
"low group"
>>> group_label("O=C(NCc1ccc(S(=O)(=O)C2CCCN(S(=O)(=O)c3ccccc3)C2)cc1)c1cnc2[nH]ncc2c1 (stereo not shown) [Example 345]")
"high group"
>>> group_label("O=C(NCc1ccc(S(=O)(=O)[C@@H]2CCOC2)cc1)c1cc2ccncc2o1 [Example 232]")
"high group"
>>> group_label("O=C(NCc1ccc(S(=O)(=O)N2CC3(CCOCC3)C2)cc1)c1cnc2[nH]ncc2c1 [Example 269]")
"high group"
>>> group_label("O=C(NCc1ccc(S(=O)(=O)N2CCCCC2)cc1)c1cn2[nH]ccc2n1 [Example 1]")
"high group"
>>> group_label("O=C(NCc1ccc(S(=O)(=O)N2C[C@@H]3CC(F)(F)[C@@H]3C2)cc1)c1ccc2nccn2c1 (racemic) [Example 147]")
"low group"
>>> group_label("O=C(NCc1ccc(S(=O)(=O)N2CC3(CCOCC3)C2)cc1)c1cc2ccncc2o1 [Example 263]")
"low group"
>>> group_label("CC(=O)N1CC2(C1)CN(S(=O)(=O)c1ccc(CNC(=O)c3ccc4nccn4c3)cc1)C2 [Example 259]")
"middle group"
>>> group_label("O=C(NCc1ccc(S(=O)(=O)N2CC(F)(F)C2)cc1)c1ccc2nccn2c1 [Example 239]")
"middle group"
>>> group_label("O=C(NCc1ccc(S(=O)(=O)N2CCCC(O)C2)cc1)c1cc2ccncc2o1 (racemic) [Example 34]")
"low group"
>>> group_label("O=C(NCc1ccc(S(=O)(=O)N2CCCC3(CCCCN3)C2)cc1)c1ccc2nccn2c1 (stereo not shown) [Example 326]")
"high group"
>>> group_label("CN1CCC([S+]([O-])c2ccc(CNC(=O)c3ccc4nccn4c3)cc2)CC1 (stereo not shown) [Example 371]")
"middle group"
>>> group_label("O=C(NCc1ccc([S+]([O-])C2CCN(CC(F)(F)F)CC2)cc1)N1Cc2ccncc2C1 (stereo not shown) [Example 376]")
"low group"

----------
molecular target: UniProtKB P43490; test: Assay 1: Biochemical Inhibition Assay (NAMPT enzymatic reaction, NMN quantified by mass spectrometry); conditions: read-out: Biochemical (IC50);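 note: recombinant His-tagged human NAMPT preincubated with compound 15 min, then reacted 30 min at rt with 1 µM NAM, 100 µM PRPP, 2.5 mM ATP, NMN product read by RapidFire MS, normalized to L-Cystathionine internal standard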
Endpoint name: log10(IC50) (log10 of the value in nM)

>>> endpoint_result("O=C(NCc1ccc(S(=O)(=O)N2CCC(O)CC2)cc1)c1cc2ccncc2o1")
1.42
>>> endpoint_result("O=C(NCc1ccc(S(=O)(=O)N2C[C@@H]3C[C@H]2CO3)cc1)c1cnc2[nH]ncc2c1 (racemic)")
2.32
>>> endpoint_result("O=C(NCc1ccc(S(=O)(=O)[C@H]2CCOC2)cc1)c1ccc2nccn2c1")
1.81
>>> endpoint_result("O=C(NCc1ccc(S(=O)(=O)N2CCC(N3CCCC3)CC2)cc1)c1ccc2nccn2c1")
1.16
>>> endpoint_result("CN1CCC([S+]([O-])c2ccc(CNC(=O)N3Cc4ccncc4C3)cc2)CC1 (stereo not shown)")
1.76
>>> endpoint_result("O=C(NCc1ccc(S(=O)(=O)N2CCCCC2)cc1)c1cc2ccncc2o1")
0.97
>>> endpoint_result("O=C(NCc1ccc(S(=O)(=O)N2CC3CNCC(C2)O3)cc1)c1ccc2nccn2c1")
2.51
>>> endpoint_result("COCCN1CCN(S(=O)(=O)c2ccc(CNC(=O)c3cc4ccncc4o3)cc2)CC1")
1.96
>>> endpoint_result("CC(=O)N1CCCC(S(=O)(=O)c2ccc(CNC(=O)c3cnc4[nH]ncc4c3)cc2)C1 (stereo not shown)")
2.58
>>> endpoint_result("O=C(NCc1ccc(S(=O)(=O)N2C[C@H]3CCC(F)(F)[C@H]3C2)cc1)c1cnc2[nH]ncc2c1 (racemic)")
1.58
>>> endpoint_result("COCCN1CCN(S(=O)(=O)c2ccc(CNC(=O)c3cnc4[nH]ncc4c3)cc2)CC1")
2.26
>>> endpoint_result("O=C(NCc1ccc(S(=O)(=O)N2C[C@@H]3CC(F)(F)C[C@@H]3C2)cc1)c1ccc2nccn2c1")
0.81
>>> endpoint_result("CC(=O)N1CCC(S(=O)(=O)c2ccc(CNC(=O)c3cnc4[nH]ncc4c3)cc2)CC1")
2.32
>>> endpoint_result("O=C(NCc1ccc(S(=O)(=O)N2CCOC3(CCOC3)C2)cc1)c1ccc2nccn2c1 (racemic)")
1.37
>>> endpoint_result("O=C(NCc1ccc(S(=O)(=O)C2CCCOC2)cc1)c1cc2ccncc2o1 (racemic) [Example 168]")
1.48
>>> endpoint_result("CC(C)CN1CCN(S(=O)(=O)c2ccc(CNC(=O)c3ccc4nccn4c3)cc2)CC1")
1.33
>>> endpoint_result("O=C(NCc1ccc(S(=O)(=O)N2CCN(CC(F)(F)F)CC2)cc1)c1ccc2nccn2c1")
1.38
>>> endpoint_result("CC(=O)N1CCN(S(=O)(=O)c2ccc(CNC(=O)c3ccc4nccn4c3)cc2)CC1")
1.35
>>> endpoint_result("O=C(NCc1ccc(S(=O)(=O)C2CCNCC2)cc1)c1cnc2[nH]ncc2c1")
2.83
>>> endpoint_result("O=C(NCc1ccc(S(=O)(=O)N2CCC3(CCCO3)C2)cc1)c1cc2ccncc2o1 (stereo not shown)")
1.36
>>> endpoint_result("O=C(NCc1ccc(S(=O)(=O)N2CCCC3(CCCCN3)C2)cc1)c1ccc2nccn2c1 (stereo not shown) [Example 336]")
2.58
>>> endpoint_result("CC(C)(C)OC(=O)N1CCCC2(CCN(S(=O)(=O)c3ccc(CNC(=O)c4ccc5nccn5c4)cc3)CC2)C1")
1.41
>>> endpoint_result("O=C(NCc1ccc(S(=O)(=O)N2CCC(F)(F)C2)cc1)c1cc2ccncc2o1")
1.33
>>> endpoint_result("O=C(NCc1ccc(S(=O)(=O)N2CC3CC(F)(F)CC3C2)cc1)c1cnc2[nH]ncc2c1 (racemic)")
1.31
>>> endpoint_result("O=C(NCc1ccc(S(=O)(=O)[C@H]2CCOC2)cc1)c1cnc2nccn2c1 [Example 76]")
0.99
>>> endpoint_result("CC(C)(C)OC(=O)N1CCCCC12CCCN(S(=O)(=O)c1ccc(CNC(=O)c3ccc4nccn4c3)cc1)C2 (racemic)")
1.57
>>> endpoint_result("O=C(NCc1ccc(S(=O)(=O)N2CCC(N3CCCC3)CC2)cc1)c1cc2ccncc2o1")
1.25
>>> endpoint_result("O=C(NCc1ccc(S(=O)(=O)N2CCC3(CCCO3)C2)cc1)c1cnc2[nH]ncc2c1 (stereo not shown)")
1.85
>>> endpoint_result("CN1CCOC2(C1)CN(S(=O)(=O)c1ccc(CNC(=O)c3ccc4nccn4c3)cc1)C2")
1.53
>>> endpoint_result("CCCN1CCC([S+]([O-])c2ccc(CNC(=O)N3Cc4ccncc4C3)cc2)CC1 (stereo not shown)")
1.40
>>> endpoint_result("CN1CCC2CN(S(=O)(=O)c3ccc(CNC(=O)c4ccc5nccn5c4)cc3)CC21 (racemic)")
1.73

Where do these numbers come from? They come from patent US10696692B2.
